target: UniProtKB Q16539; experiment: p38α/MK2 cascade assay; format: biochemical; conditions: Table 1; inhibitors preincubated with p38α for 40 minutes; phosphorylation of Hsp27 peptide by MK-2, Caliper LabChip 3000; read-out: p38a/MK2 Cascade 40 min Pre-Incuabtion (% Inhibition): IC50
Sequence (Q16539 whole entry): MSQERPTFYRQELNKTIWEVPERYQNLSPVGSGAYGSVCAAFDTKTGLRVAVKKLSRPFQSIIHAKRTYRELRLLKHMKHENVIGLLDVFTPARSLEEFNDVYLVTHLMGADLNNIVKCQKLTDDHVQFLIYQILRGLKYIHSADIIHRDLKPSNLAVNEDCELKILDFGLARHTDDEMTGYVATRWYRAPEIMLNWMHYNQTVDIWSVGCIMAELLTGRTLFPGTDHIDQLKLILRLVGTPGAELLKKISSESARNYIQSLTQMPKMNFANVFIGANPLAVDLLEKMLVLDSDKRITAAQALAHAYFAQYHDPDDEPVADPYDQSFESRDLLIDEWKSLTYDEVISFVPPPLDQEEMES
measurement_type: IC50

Given the compound `COc1ccc(Cn2c(C)cc(OCc3ccc(F)cc3CNC(=O)Nc3cc(C(C)(C)C)nn3-c3cccc(OCCO)c3)c(Cl)c2=O)cc1` , what is its reported IC50? 3.7 nM

Given the compound `COC(=O)c1ccc(C)c(-n2c(C)cc(OCc3ccc(F)cc3CNC(=O)Nc3cc(C(C)(C)C)nn3-c3cccc(Cl)c3)c(Cl)c2=O)c1` , what is its reported IC50? 3.99 nM

Given the compound `COc1ccc(Cn2c(C)cc(OCc3ccccc3CNC(=O)Nc3cc(C(C)(C)C)nn3-c3ccc(O)c(Cl)c3)c(Cl)c2=O)cc1Cl` , what is its reported IC50? 9.7 nM

Given the compound `Cc1ccc(-n2nc(C(C)(C)C)cc2NC(=O)NCc2cc(F)ccc2COc2cc(C)n(-c3cc(C(=O)NCCO)ccc3C)c(=O)c2Cl)cc1` , what is its reported IC50? 2.37 nM

Given the compound `Cc1ccc(C(=O)NCCN(C)C)cc1-n1c(C)cc(OCc2ccc(F)cc2CNC(=O)Nc2cc(C(C)(C)C)nn2-c2cccc(OCCO)c2)c(Cl)c1=O` , what is its reported IC50? 1.4 nM

Given the compound `COc1ccc(Cn2c(C)cc(OCc3ccc(F)cc3CNC(=O)Nc3cc(C(C)(C)C)nn3-c3ccc(O)c(Cl)c3)c(Cl)c2=O)cc1` , what is its reported IC50? 4.5 nM

Given the compound `COc1cc(Cn2c(C)cc(OCc3ccccc3CNC(=O)Nc3cc(C(C)(C)C)nn3-c3cccc(O)c3)c(Cl)c2=O)ccc1Cl` , what is its reported IC50? 20.1 nM

Given the compound `COc1ccc(Cn2c(C)cc(OCc3ccccc3CNC(=O)Nc3cc(C(C)(C)C)nn3-c3cccc(O)c3)c(Cl)c2=O)cc1Cl` , what is its reported IC50? 6.9 nM

Given the compound `Cc1ccc(-n2nc(C(C)(C)C)cc2NC(=O)NCc2ccccc2COc2cc(C)n(Cc3ccccc3)c(=O)c2Br)cc1` , what is its reported IC50? 4.59 nM

Given the compound `COc1ccc(Cn2c(C)cc(OCc3ccccc3CNC(=O)Nc3cc(C(C)(C)C)nn3-c3cccc(F)c3)c(Br)c2=O)c(OC)c1` , what is its reported IC50? 15.7 nM

Given the compound `Cc1ccc(-n2nc(C(C)(C)C)cc2NC(=O)NCc2ccccc2COc2cc(C)n(Cc3ccc(O)cc3)c(=O)c2Br)cc1` , what is its reported IC50? 4.59 nM

Given the compound `COc1ccc(Cn2c(C)cc(OCc3ccccc3CNC(=O)Nc3cc(C(C)(C)C)nn3-c3cccc(O)c3)cc2=O)cc1` , what is its reported IC50? 24.3 nM

Given the compound `COc1cccc(-n2nc(C(C)(C)C)cc2NC(=O)NCc2cc(F)ccc2COc2cc(C)n(-c3cc(C(=O)O)ccc3C)c(=O)c2Cl)c1` , what is its reported IC50? 2.55 nM
